These entries and their values trace back to the supplement of paper PMC10065799.

# Test system: c-Src
# assay_summary: phosphorylation enrichment, bacterial display (enrichment ratio); higher = better substrate or ligand; peptides without Tyr show the background;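 further: 11-residue human phosphosite peptides and single-mutation variants displayed on the E. coli surface, counted by deep sequencing, each peptide's frequency after selection divided by its frequency in the unselected input library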;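 further: frequency after pTyr selection over input frequency; kinase dosed for 20-30% of maximal phosphorylation in three min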
# cutoff 0.5 applies to phosphorylation enrichment; >= gives yes (1), < gives no (0)

>>> print(df.to_string())
                   primary_sequence  class_label
0  KDHPDYEFQPR [SOX9_Y172_K173E_YF]       no (0)

Could you now look at the following sequence, please?
API: above_or_equal(metric=phosphorylation enrichment, cutoff=0.5) for item KSSDVYVSFDC [SORL1_Y136_Y141C_YF]
yes (1)

###

# target: EPHB2 (UniProt P29323)
# Sequence (P29323 whole entry, looked up): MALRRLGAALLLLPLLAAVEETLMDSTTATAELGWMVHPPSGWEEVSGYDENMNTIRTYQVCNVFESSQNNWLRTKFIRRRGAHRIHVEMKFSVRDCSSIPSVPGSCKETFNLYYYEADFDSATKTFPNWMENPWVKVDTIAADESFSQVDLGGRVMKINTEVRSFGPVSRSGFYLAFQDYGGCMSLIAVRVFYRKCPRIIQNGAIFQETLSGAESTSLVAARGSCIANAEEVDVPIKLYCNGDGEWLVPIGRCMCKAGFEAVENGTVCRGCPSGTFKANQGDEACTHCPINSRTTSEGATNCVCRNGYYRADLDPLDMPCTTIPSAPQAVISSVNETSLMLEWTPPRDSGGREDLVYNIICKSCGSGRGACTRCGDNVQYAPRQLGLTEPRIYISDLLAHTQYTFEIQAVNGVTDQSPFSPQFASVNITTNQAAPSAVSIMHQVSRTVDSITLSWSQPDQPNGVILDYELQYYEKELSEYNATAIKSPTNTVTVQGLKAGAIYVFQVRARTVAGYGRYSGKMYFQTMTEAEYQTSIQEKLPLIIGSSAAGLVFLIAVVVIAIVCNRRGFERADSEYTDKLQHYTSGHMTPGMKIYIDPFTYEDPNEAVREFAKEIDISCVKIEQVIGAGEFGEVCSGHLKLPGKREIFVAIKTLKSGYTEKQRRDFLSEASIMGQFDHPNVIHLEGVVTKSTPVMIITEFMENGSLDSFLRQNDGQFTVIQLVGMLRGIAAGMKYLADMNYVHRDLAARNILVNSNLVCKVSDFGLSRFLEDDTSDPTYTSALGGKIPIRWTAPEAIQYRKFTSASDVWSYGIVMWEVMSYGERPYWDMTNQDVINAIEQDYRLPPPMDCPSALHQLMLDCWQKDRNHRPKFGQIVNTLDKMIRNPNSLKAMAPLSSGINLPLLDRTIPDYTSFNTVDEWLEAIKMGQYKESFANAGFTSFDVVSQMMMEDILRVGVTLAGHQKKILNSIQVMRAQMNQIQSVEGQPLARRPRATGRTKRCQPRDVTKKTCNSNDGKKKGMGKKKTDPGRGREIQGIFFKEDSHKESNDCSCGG
# assay_summary: phosphorylation enrichment, bacterial display (enrichment ratio); higher = better substrate or ligand; peptides without Tyr show the background
Would you mind sorting the entries by phosphorylation enrichment according to these classes? one (below 0.5), two (0.5 to below 0.6), three (0.6 or more)

The examples below pair each entry with its known result.
>>> print(df.to_string())
                     primary_sequence  class_label
0         EVASVYESYQP [MAVS_Y92_Q93E]        three
1           GDFSRYDEGSG [RECQL5_Y484]          one
2        IVRSLYEDVED [VHL_Y185_L188V]        three
3          VFFGSYSRPFG [NKAP_Y104_YF]          one
4          NFFEFYVDDPP [GCHFR_Y48_YF]        three
5  FIGVTYKNKED [PDGFRA_Y993_E996K_YF]          two
6       IGNGFYFRVFS [MYBPC3_Y1136_YF]          two
7        SLLTDCSPQLQ [OTC_Y345_Y345C]          two
8           GEKKAYVRLAP [RPL23A_Y137]          one
9           HICTAYELVLA [DHCR24_Y190]        three

Each sequence maps to one class by phosphorylation enrichment. Which class for GNFSGYDDAWD [POLR1C_Y36_YF] ?
two
